tested-on: T1, mouse TMEM106B (mouse, UniProt Q80X71 2-275)
T1 construct: on transiently transfected HEK293 cells, or natively expressed on mouse Neuro2a cells; also called moTMEM106B; murine TMEM106B
assay-overview: FACS, HEK293 transfectants;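 also: flow cytometry binding of hybridoma supernatants to HEK293 cells transiently expressing human, cyno or mouse TMEM106B, read as anti-mouse-APC median fluorescence, live cells only, 30 min on ice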
property-name: fold-change over parental HEK293 (fold)
Reply with just the number (in fold).

Before answering, review these 4 worked examples.
binder	fold-change over parental HEK293 [fold]
anti-TMEM106B antibody TM-25 (antibody, V domains shown) VH: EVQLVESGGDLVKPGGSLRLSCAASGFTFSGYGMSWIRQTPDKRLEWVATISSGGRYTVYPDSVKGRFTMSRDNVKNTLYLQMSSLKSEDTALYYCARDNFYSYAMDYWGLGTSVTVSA VL: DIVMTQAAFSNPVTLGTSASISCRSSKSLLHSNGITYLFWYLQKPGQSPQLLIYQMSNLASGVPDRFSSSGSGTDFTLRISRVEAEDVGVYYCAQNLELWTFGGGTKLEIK	2.87
anti-TMEM106B antibody TM-9 (antibody, V domains shown) VH: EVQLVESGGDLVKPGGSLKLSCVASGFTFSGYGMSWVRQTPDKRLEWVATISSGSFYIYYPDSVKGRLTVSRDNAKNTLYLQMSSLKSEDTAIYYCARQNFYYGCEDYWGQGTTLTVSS VL: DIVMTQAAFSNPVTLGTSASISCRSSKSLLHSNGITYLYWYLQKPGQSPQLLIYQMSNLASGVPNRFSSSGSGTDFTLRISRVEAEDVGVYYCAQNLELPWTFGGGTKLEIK	8.52
anti-TMEM106B antibody TM-5 (antibody, V domains shown) VH: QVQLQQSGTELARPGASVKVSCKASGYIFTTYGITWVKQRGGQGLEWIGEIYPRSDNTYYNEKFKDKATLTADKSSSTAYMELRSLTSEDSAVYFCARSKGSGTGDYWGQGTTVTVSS VL: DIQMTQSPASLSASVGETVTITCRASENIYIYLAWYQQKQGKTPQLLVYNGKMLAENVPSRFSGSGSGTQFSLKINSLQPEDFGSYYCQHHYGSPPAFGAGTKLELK	26.6
anti-TMEM106B antibody TM-17 (antibody, V domains shown) VH: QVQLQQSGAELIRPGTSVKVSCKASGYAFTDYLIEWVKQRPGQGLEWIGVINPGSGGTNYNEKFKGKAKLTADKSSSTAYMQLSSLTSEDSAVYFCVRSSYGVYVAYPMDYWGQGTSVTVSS VL: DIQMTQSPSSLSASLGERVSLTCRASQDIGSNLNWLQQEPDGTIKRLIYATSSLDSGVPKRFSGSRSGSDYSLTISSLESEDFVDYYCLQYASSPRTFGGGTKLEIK	6.42

Consider the record given below.
Which fold-change over parental HEK293 reading was recorded for the binder anti-TMEM106B antibody TM-19 (antibody, V domains shown) VH: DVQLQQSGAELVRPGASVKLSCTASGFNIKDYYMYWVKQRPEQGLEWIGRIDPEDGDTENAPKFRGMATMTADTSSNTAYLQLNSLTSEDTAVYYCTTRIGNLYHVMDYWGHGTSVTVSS VL: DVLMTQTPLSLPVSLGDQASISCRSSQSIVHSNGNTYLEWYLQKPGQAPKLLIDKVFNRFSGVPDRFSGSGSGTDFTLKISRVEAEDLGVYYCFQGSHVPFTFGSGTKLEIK ?
36
